Entries and their DC50 values follow.
TESTED_TARGET: IKZF2 (Helios) (Homo sapiens, UniProt Q96SW2+Q9UKS7)
Sequence (Q9UKS7 whole entry): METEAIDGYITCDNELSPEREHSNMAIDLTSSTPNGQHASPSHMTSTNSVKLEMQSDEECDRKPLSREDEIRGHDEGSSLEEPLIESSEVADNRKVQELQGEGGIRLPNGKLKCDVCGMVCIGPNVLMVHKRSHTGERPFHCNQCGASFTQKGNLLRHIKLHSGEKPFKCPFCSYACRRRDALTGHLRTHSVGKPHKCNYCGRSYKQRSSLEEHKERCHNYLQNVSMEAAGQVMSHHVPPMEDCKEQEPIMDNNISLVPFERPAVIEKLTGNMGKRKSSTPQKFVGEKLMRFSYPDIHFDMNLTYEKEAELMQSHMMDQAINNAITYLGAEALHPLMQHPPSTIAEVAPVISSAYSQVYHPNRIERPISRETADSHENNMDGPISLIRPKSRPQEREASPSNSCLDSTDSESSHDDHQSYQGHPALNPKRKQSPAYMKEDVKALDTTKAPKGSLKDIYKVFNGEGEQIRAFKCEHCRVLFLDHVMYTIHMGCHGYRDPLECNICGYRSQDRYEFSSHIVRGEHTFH
Sequence (Q96SW2 whole entry): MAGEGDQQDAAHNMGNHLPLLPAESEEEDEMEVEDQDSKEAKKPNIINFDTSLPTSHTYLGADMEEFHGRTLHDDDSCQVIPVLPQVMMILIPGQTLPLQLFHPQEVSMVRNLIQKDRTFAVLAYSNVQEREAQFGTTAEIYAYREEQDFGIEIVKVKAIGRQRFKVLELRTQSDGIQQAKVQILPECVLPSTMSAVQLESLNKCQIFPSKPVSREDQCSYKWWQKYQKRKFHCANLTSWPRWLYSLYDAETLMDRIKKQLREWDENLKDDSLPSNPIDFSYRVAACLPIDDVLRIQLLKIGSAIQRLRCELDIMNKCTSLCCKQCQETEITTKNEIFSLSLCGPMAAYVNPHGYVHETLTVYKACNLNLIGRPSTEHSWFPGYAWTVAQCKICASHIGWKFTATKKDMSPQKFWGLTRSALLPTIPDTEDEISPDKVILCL
Sequence (Q16531 whole entry partner): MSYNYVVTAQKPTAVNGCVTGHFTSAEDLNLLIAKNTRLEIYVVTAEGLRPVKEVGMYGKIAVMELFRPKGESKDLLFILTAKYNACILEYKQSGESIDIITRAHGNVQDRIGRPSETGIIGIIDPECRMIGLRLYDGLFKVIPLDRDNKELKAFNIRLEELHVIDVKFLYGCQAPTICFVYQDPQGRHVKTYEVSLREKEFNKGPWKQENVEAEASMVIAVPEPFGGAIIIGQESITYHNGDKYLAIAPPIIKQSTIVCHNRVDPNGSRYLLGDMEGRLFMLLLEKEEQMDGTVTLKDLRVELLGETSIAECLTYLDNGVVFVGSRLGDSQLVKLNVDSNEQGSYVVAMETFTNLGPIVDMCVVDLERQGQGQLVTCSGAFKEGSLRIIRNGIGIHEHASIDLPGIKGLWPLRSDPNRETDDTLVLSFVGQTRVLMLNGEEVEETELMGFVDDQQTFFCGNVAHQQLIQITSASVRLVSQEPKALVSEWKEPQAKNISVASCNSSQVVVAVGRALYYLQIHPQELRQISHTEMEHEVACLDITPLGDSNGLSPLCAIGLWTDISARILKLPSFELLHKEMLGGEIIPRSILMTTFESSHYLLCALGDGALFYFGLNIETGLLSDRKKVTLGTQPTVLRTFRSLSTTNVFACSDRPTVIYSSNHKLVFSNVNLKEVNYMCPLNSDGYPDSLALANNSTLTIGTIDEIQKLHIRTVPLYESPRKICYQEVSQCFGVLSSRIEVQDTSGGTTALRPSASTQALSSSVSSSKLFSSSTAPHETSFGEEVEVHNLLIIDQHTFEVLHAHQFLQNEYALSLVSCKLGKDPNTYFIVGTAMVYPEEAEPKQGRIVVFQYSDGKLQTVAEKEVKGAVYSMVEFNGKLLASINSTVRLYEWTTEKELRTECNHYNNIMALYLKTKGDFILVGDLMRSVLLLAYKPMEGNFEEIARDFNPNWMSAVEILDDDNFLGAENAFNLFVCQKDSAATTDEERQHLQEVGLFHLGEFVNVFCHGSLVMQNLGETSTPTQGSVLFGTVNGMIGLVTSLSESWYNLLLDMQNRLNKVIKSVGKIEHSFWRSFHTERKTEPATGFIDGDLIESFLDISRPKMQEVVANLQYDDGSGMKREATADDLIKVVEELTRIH
ASSAY: Screening of DC50 (nM) and Dmax (%) using WB-IKZF2 cell line (Western blot)
Assay type: cell-based
Set-up: endogenous in cells
CONDITION_LABEL: 6 hours, class symbols, read-out: WB-IKZF2 DC 50

Please review the following examples before continuing.
>  <COMPOUND>
Cc1c(C(=O)N2CCC(c3ccc4c(c3)CN(C3CCC(=O)NC3=O)C4=O)CC2)[nH]c2cc(C#N)ccc12 (stereo not shown)

>  <TESTED_TARGET>
IKZF2 (Helios) (Homo sapiens, UniProt Q96SW2+Q9UKS7)

>  <ENDPOINT_NAME>
DC50

>  <TEST_VALUE>
10 to 100 nM

$$$$
>  <COMPOUND>
Cc1c(C(=O)N2CCC(c3ccc4c(c3)CN(C3CCC(=O)NC3=O)C4=O)CC2)[nH]c2cc(C(F)(F)F)ccc12 (stereo not shown)

>  <TESTED_TARGET>
IKZF2 (Helios) (Homo sapiens, UniProt Q96SW2+Q9UKS7)

>  <ENDPOINT_NAME>
DC50

>  <TEST_VALUE>
10 to 100 nM

$$$$
>  <COMPOUND>
Cc1c(C(=O)N2CCC(c3ccc4c(c3)C(=O)N(C3CCC(=O)NC3=O)C4=O)CC2)[nH]c2cc([N+](=O)[O-])ccc12 (stereo not shown)

>  <TESTED_TARGET>
IKZF2 (Helios) (Homo sapiens, UniProt Q96SW2+Q9UKS7)

>  <ENDPOINT_NAME>
DC50

>  <TEST_VALUE>
10 to 100 nM

$$$$
>  <COMPOUND>
Cc1c(C(=O)N2CCC(c3ccc4c(c3F)CN(C3CCC(=O)NC3=O)C4=O)CC2)[nH]c2cc(C#N)ccc12 (stereo not shown)

>  <TESTED_TARGET>
IKZF2 (Helios) (Homo sapiens, UniProt Q96SW2+Q9UKS7)

>  <ENDPOINT_NAME>
DC50

>  <TEST_VALUE>
< 10 nM

$$$$
>  <COMPOUND>
Cc1c(C(=O)N2CCC(c3ccc4c(c3)CN(C3CCC(=O)NC3=O)C4=O)CC2)[nH]c2cc([N+](=O)[O-])ccc12 (stereo not shown)

>  <TESTED_TARGET>
IKZF2 (Helios) (Homo sapiens, UniProt Q96SW2+Q9UKS7)

>  <ENDPOINT_NAME>
DC50

>  <TEST_VALUE>
< 10 nM

$$$$
>  <COMPOUND>
CCNC(=O)Nc1ccc2c(C)c(C(=O)N3CCC(c4ccc5c(c4)CN(C4CCC(=O)NC4=O)C5=O)CC3)[nH]c2c1 (stereo not shown)

>  <TESTED_TARGET>
IKZF2 (Helios) (Homo sapiens, UniProt Q96SW2+Q9UKS7)

>  <ENDPOINT_NAME>
DC50

>  <TEST_VALUE>
100 to 1000 nM

$$$$
>  <COMPOUND>
Cc1c(C(=O)N2CCC(c3cc4c(cc3F)C(=O)N(C3CCC(=O)NC3=O)C4)CC2)[nH]c2cc(Cl)c(F)cc12 (stereo not shown)

>  <TESTED_TARGET>
IKZF2 (Helios) (Homo sapiens, UniProt Q96SW2+Q9UKS7)

>  <ENDPOINT_NAME>
DC50

>  <TEST_VALUE>
10 to 100 nM

$$$$
>  <COMPOUND>
Cc1c(C(=O)N2CCC(O)(c3ccc4c(c3)CN(C3CCC(=O)NC3=O)C4=O)CC2)[nH]c2cc(Cl)ccc12 (stereo not shown)

>  <TESTED_TARGET>
IKZF2 (Helios) (Homo sapiens, UniProt Q96SW2+Q9UKS7)

>  <ENDPOINT_NAME>
DC50

>  <TEST_VALUE>
10 to 100 nM

$$$$
>  <COMPOUND>
Cc1c(C(=O)N2CCC(c3ccc4c(c3)CN(C3CCC(=O)NC3=O)C4=O)CC2)[nH]c2cc(O)ccc12 (stereo not shown)

>  <TESTED_TARGET>
IKZF2 (Helios) (Homo sapiens, UniProt Q96SW2+Q9UKS7)

>  <ENDPOINT_NAME>
DC50

>  <TEST_VALUE>
100 to 1000 nM

$$$$
>  <COMPOUND>
Cc1c(C(=O)N2CCC(c3ccc4c(c3F)CN(C3CCC(=O)NC3=O)C4=O)CC2)[nH]c2cc(C#N)c(F)cc12 (stereo not shown)

>  <TESTED_TARGET>
IKZF2 (Helios) (Homo sapiens, UniProt Q96SW2+Q9UKS7)

>  <ENDPOINT_NAME>
DC50

>  <TEST_VALUE>
10 to 100 nM

$$$$

Provide only the value of recorded DC50 for CN(C)Cc1c(C(=O)N2CCC(c3ccc4c(c3)CN(C3CCC(=O)NC3=O)C4=O)CC2)[nH]c2cc(Cl)ccc12 (stereo not shown) 100 to 1000 nM

Note down DC50 recorded for Cc1c(C(=O)N2CCC(c3cc4c(cc3F)C(=O)N(C3CCC(=O)NC3=O)C4)CC2)[nH]c2cc([N+](=O)[O-])ccc12 (stereo not shown) < 10 nM

Note DC50 for the compound shown: Cc1c(C(=O)N2CCC(c3ccc4c(c3)CN(C3CCC(=O)NC3=O)C4=O)CC2)[nH]c2cc([N+](=O)[O-])c(O)cc12 (stereo not shown) 10 to 100 nM

Kindly indicate its recorded DC50. Item: Cc1c(C(=O)N2CCC(c3cc4c(cc3F)C(=O)N(C3CCC(=O)NC3=O)C4)CC2)[nH]c2cc(Cl)ccc12 (stereo not shown) < 10 nM

Return reported DC50. Input compound: Cc1c(C(=O)N2CCC(c3ccc4c(c3F)C(=O)N(C3CCC(=O)NC3=O)C4=O)CC2)[nH]c2cc(Cl)ccc12 (stereo not shown) 100 to 1000 nM

Give reported DC50 value for Cc1c(C(=O)N2CCC(c3ccc4c(c3F)CN(C3CCC(=O)NC3=O)C4=O)CC2)[nH]c2c(F)c(Cl)ccc12 (stereo not shown) < 10 nM

Indicate its recorded DC50; the compound in question is Cc1c(C(=O)N2CCC(c3ccc4c(c3)CN(C3CCC(=O)NC3=O)C4=O)CC2)[nH]c2cc([N+](=O)[O-])c(Cl)cc12 (stereo not shown) 100 to 1000 nM

For the compound COc1cc2c(C)c(C(=O)N3CCC(c4ccc5c(c4F)CN(C4CCC(=O)NC4=O)C5=O)CC3)[nH]c2cc1Cl (stereo not shown) , report DC50. < 10 nM

Return the recorded DC50 value; entry: COc1cc2c(C)c(C(=O)N3CCC(c4ccc5c(c4)CN(C4CCC(=O)NC4=O)C5=O)CC3)[nH]c2cc1[N+](=O)[O-] (stereo not shown) 10 to 100 nM

Write down DC50 measured for item Cc1c(C(=O)N2CCC(c3ccc4c(c3F)CN(C3CCC(=O)NC3=O)C4=O)CC2)[nH]c2cc([N+](=O)[O-])ccc12 (stereo not shown) < 10 nM

The origin of these recorded values is patent US20260216164A1.
